tested-target: 大腸菌由来組換えhGM−CSF(Peprotech) (human)
assay-explanation: SPR (Biacore), antibody captured through protein G on the chip, rhGM-CSF injected
assay-readout: Kd (pM)

- binder: "EV1019 (antibody, V domains shown) VH: QAQLVESGGGVVKPGGSLRLSCISSKFTFSSHAMHWVRQAPGKGLEWVAVIWHDGSKKYYADSVKGRFSVSRDNSKNTLFLQMDSLRAEDTAVYFCGKEWVGGTCDSWGQGTLVIVSS VL: QPALTQEASVSGTVGQTVTLLCSGNSSNIGSYAVGWYQQISRGAPKIVVFGKSPASGIPDRFSGSKSGTTASLLVSGLQPEDEADYYCSTWDSRLSAVLFGGGTKLTVLR"
  test-result: 150
- binder: "EV1018 (antibody, V domains shown) VH: QVQLVESGGGMVQPGMPLRLSCVASGFTFSSYGMHWVRQAPGKGLEWVALTYHHGNRKFYADSVRGRFTISRDNSNNTLYLQMTSLRAEDTAVYFCARESMGAINDNWGQGTLVIVSS VL: QSALTQETSVSGTVGQKVTLSCIGNNNNIGSHAVGWYQQISRGAPKMVLFGRSPPSGVPDRFSGSKSGTTASLIISGLQPEDEADYYCSTWDSSLSAVVFGGGTKLTVLR"
  test-result: 150
- binder: "EV1007 (antibody, V domains shown) VH: QVHLVQSGSELKKPGASVKVSCKASGYSFSRYGIKWVRQAPGQGLEWMGWINTRSGVPAYAQGFTGRFVFSLDTSVDTAFLEISSLKTEDTGIYYCATRPPRFYDKTEYWEDGFDVWGRGTLVTVSS VL: QSVLTQPPSASGTPGQSVNISCSGSSSNIGNSYVYWYQQLPGTAPKLLIYRNNRRPSGVPDRFSGSKSDTSASLAISGLRSEDEADYYCATWDDSLSGRLFGGGTKLTVL"
  test-result: 930
- binder: "EV1003 (antibody, V domains shown) VH: LVQLVQSEAEVKKPGASVRISCRTSGYIFPTFALHWVRQAPGQSLEWVGSINTASGKTKFSTKFQDRLTLSSNTSATTVYMDLSGLTLDDTALYYCARDRFQNIMATILDVWGQGTLVTVSS VL: DIVLTQSPGTLSLSPGERVTVSCRASHRVSSNYLAWYQQRPGQSPRLLIFGASNRATGVPDRFSGSGSGTDFALTISRLEPDDFAVYYCQQYASSPVTFGGGTKLEIK"
  test-result: 95
